Target: Cytochrome P450 3A4 (Homo sapiens, UniProt P08684)
Sequence (P08684 whole entry): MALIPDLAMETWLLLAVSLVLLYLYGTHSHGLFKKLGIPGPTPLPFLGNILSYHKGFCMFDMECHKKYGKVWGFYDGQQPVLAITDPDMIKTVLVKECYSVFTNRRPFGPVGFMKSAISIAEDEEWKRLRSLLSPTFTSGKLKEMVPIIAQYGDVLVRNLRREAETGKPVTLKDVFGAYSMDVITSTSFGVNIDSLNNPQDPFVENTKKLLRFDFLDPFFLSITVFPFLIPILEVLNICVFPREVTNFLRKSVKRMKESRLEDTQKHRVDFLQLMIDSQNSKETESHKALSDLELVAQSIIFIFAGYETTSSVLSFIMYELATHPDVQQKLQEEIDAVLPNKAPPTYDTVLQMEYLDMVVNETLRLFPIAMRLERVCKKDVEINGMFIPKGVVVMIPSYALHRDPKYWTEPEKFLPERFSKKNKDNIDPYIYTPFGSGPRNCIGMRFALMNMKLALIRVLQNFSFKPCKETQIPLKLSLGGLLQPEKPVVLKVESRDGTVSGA
Test: Inhibition of CYP3A4 (unknown origin) incubated for 10 mins in presence of NADPH by LC-MS/MS analysis
Format: ADME
Endpoint: pIC50
Please keep in mind that pIC50 is minus log10 of the molar concentration; only the number is needed.

Worked set:
COc1cc(-c2ccnc(NC(C)=O)c2)ccc1OC[C@@H](N)CC(C)C; 5.16
CC(=O)Nc1cc(-c2ccc(OC[C@@H](N)CC(C)C)c(OC(F)(F)F)c2)ccn1; 6.64
COC(=O)Nc1cc(-c2ccc(OC[C@@](C)(N)CC(C)C)c(C3CC3)c2)ccn1; 4.79
CC(=O)Nc1cc(-c2cc(F)c(OC[C@@H](N)CC(C)C)c(C(F)(F)F)c2)ccn1; 6.33
CC(=O)Nc1cc(-c2cc(F)c(OC[C@@H](N)CC(C)C)c(Cl)c2)ccn1; 6.10

*Q* Give the reported pIC50 for COC(=O)Nc1cc(-c2ccc(OC[C@@](C)(N)CC(C)C)c(OC(F)(F)F)c2)ccn1 (system: Cytochrome P450 3A4 (Homo sapiens, UniProt P08684)).
*A* 5.11

*Q* What do you have for CC(=O)Nc1cc(-c2cc(F)c(OC[C@@H](N)CC(C)C)cc2F)ccn1 ?
*A* 5.15

*Q* What do you have for COC(=O)Nc1cc(-c2ccc(OC[C@@H](N)CC(C)C)c(-c3ccno3)c2)ccn1 ?
*A* 6.74

*Q* What do you have for CC(=O)Nc1cc(-c2cc(F)c(OC[C@@H](N)CC(C)C)c(F)c2)ccn1 ?
*A* 5.89

*Q* What do you have for COC(=O)Nc1cc(-c2cnc(OC[C@@](C)(N)CC(C)C)c(C#N)c2)ccn1 ?
*A* 5.66

---

Target: Death-associated protein kinase 3 (Homo sapiens)
Sequence (O43293 whole entry): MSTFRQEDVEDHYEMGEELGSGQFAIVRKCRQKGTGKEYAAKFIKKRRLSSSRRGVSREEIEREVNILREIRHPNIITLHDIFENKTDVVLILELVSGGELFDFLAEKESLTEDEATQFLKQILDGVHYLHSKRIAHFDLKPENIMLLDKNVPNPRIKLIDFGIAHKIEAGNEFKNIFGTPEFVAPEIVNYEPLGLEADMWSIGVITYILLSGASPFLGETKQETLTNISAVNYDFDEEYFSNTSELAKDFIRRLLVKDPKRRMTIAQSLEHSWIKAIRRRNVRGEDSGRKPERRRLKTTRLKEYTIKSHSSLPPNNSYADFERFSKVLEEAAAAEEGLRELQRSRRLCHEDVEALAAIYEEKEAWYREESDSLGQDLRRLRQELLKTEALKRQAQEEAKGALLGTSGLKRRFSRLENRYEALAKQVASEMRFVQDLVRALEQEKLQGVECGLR
Test: Inhibition of DAPK3 (unknown origin)
Endpoint: pIC50
Please keep in mind that pIC50 is minus log10 of the molar concentration; only the number is needed.

COC(=O)Nc1cc(-c2ccc(OC[C@@](C)(N)CC(C)C)c(Cl)n2)ccn1; 5.96

Could you now consider this next compound?
*Q* Please give the measured pIC50 for this compound: COC(=O)Nc1cc(-c2ccc(OC[C@@](C)(N)CC(C)C)c(C(F)F)n2)ccn1
*A* 5.96

---

Assay: Solubility of compound at pH 7.4 measured after 24 hrs
Assay type: physicochemical
Conditions: buffer
Endpoint: solubility at 24 h
I'd appreciate it if you wrote the number followed by its unit.

*Q* Please give the measured solubility at 24 h for this compound: COC(=O)Nc1cc(-c2ccc(OC[C@@](C)(N)CC(C)C)c(C)n2)ccn1
*A* 288 µg/mL

---

half-life listing for selected compounds.
Test: Half life in rat at 3 mg/kg, po or 2 mg/kg, iv
Type: ADME, organism-based
Conditions: in vivo
Answer in h, number only, no unit symbol.

Worked set:
COC(=O)Nc1cc(-c2cnc(OC[C@@](C)(N)CC(C)C)c(C)c2)ccn1; 7.55
COC(=O)Nc1cc(-c2ccc(OC[C@@](C)(N)CC(C)C)c(C)n2)ccn1; 11.3

*Q* Please give the measured half-life for this compound: CC(C)C[C@](C)(N)COc1cnc(-c2ccnc(C(F)F)c2)cc1C(F)F
*A* 5.02

---

Assay: Plasma concentration in CCI induced thermal hyperalgesia in Sprague-Dawley rat at 1 mg/kg, po measured at 5.5 hrs post dose
Type: ADME, organism-based
Endpoint: concentration at 5.5 h (nM)
Answer in nM, number only, no unit symbol.

CC(C)C[C@](C)(N)COc1cnc(-c2ccnc(C(F)F)c2)cc1C(F)F; 12

Could you now consider this next molecule?
*Q* Please give the measured concentration at 5.5 h for this molecule: CC(=O)Nc1cc(-c2ccc(OC[C@@H](N)CC(C)C)c(F)c2)ccn1
*A* 270

---

Test: Metabolic stability in mouse liver microsomes assessed as parent compound remaining at 0.5 uM incubated for 10 mins in presence of NADPH by LC-MS/MS analysis
Type: ADME, Microsome
Conditions: liver microsomes, read-out: Stability
Endpoint: remaining at 10 min, 0.5 µM (%)
Answer in %, number only, no unit symbol.

Cc1cc(-c2cc(C)c(OC[C@@](C)(N)CC(C)C)cn2)ccn1; 72
COC(=O)Nc1cc(-c2cnc(OC[C@@](C)(N)CC(C)C)c(C#N)c2)ccn1; 86

*Q* Please give the measured remaining at 10 min, 0.5 µM for this molecule: COC(=O)Nc1cc(-c2ccc(OC[C@@](C)(N)CC(C)C)c(C)n2)ccn1
*A* 93

*Q* What do you have for CC(=O)Nc1cc(-c2ccc(OC[C@@H](N)CC(C)C)c(OC(F)(F)F)c2)ccn1 ?
*A* 35

*Q* What do you have for COC(=O)Nc1cc(-c2cnc(OC[C@@](C)(N)CC(C)C)c(Cl)c2)ccn1 ?
*A* 65

*Q* What do you have for COC(=O)Nc1cc(-c2ccc(OC[C@@](C)(N)CC(C)C)c(C3CC3)c2)ccn1 ?
*A* 33

*Q* What do you have for COC(=O)Nc1cc(-c2ccc(OC[C@@](C)(N)CC(C)C)c(CO)c2)ccn1 ?
*A* 95

*Q* What do you have for CC(C)C[C@](C)(N)COc1cnc(-c2ccnc(Cl)c2)cc1C(F)F ?
*A* 93

*Q* What do you have for COC(=O)Nc1cc(-c2ccc(OC[C@@](C)(N)CC(C)C)c(C(F)(F)F)c2)ccn1 ?
*A* 68

*Q* What do you have for COC(=O)Nc1cc(-c2cc(C(F)(F)F)c(OC[C@@](C)(N)CC(C)C)cn2)ccn1 ?
*A* 78

*Q* What do you have for COC(=O)Nc1cc(-c2ccc(OC[C@@](C)(N)CC(C)C)c(Cl)c2)ccn1 (racemic) ?
*A* 66

*Q* What do you have for CC(=O)Nc1cc(-c2ccc(OC[C@@H](N)CC(C)C)c(C(F)(F)F)c2)ccn1 ?
*A* 53

---

The following are reported IC50 results, target or system Sodium-dependent noradrenaline transporter (Homo sapiens).
Answer in µM, number only, no unit symbol.

CC(C)C[C@](C)(N)COc1cnc(-c2ccnc(C(F)F)c2)cc1C(F)F; 1.8

Could you now consider this next molecule?
*Q* Please give the measured IC50 for this molecule: COC(=O)Nc1cc(-c2cnc(OC[C@@](C)(N)CC(C)C)c(C)c2)ccn1
*A* 5

---

Test: Protein binding in cynomolgus monkey plasma assessed as unbound fraction measured after 3 hrs by LC/MS/MS analysis
Type: ADME, cell-free, Macaca fascicularis
Endpoint: fraction unbound at 3 h
Provide a numeric answer; units are not to be included.

*Q* Please give the measured fraction unbound at 3 h for this molecule: CC(C)C[C@](C)(N)COc1cnc(-c2ccnc(C(F)F)c2)cc1C(F)F
*A* 0.075

---

Target: Myosin light chain kinase 2, skeletal/cardiac muscle (Homo sapiens)
Sequence (Q9H1R3 whole entry): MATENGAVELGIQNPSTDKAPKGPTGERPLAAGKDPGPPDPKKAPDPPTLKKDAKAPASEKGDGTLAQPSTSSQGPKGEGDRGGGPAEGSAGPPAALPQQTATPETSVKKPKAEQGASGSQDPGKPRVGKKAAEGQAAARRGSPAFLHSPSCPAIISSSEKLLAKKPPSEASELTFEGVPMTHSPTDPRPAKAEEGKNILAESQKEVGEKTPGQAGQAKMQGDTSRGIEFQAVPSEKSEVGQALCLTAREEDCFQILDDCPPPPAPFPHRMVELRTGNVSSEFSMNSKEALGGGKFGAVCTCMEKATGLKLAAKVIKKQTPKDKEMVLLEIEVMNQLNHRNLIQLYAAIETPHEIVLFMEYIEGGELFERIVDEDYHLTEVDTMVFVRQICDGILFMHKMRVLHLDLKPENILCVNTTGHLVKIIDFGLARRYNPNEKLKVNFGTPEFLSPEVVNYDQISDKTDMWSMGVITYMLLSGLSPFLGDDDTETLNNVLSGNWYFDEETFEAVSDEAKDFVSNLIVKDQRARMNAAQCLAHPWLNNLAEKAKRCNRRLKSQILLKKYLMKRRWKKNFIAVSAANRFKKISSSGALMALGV
IC50 listing for selected molecules.
Answer in nM, number only, no unit symbol.

COC(=O)Nc1cc(-c2cc(C)c(OC[C@@](C)(N)CC(C)C)cn2)ccn1; 600

Could you now consider this next molecule?
*Q* Please give the measured IC50 for this molecule: Cc1cc(-c2cc(C(F)F)c(OC[C@@](C)(N)CC(C)C)cn2)ccn1
*A* 350

---

Target: Tyrosine-protein kinase JAK2 (Homo sapiens, UniProt O60674)
Sequence (O60674 whole entry): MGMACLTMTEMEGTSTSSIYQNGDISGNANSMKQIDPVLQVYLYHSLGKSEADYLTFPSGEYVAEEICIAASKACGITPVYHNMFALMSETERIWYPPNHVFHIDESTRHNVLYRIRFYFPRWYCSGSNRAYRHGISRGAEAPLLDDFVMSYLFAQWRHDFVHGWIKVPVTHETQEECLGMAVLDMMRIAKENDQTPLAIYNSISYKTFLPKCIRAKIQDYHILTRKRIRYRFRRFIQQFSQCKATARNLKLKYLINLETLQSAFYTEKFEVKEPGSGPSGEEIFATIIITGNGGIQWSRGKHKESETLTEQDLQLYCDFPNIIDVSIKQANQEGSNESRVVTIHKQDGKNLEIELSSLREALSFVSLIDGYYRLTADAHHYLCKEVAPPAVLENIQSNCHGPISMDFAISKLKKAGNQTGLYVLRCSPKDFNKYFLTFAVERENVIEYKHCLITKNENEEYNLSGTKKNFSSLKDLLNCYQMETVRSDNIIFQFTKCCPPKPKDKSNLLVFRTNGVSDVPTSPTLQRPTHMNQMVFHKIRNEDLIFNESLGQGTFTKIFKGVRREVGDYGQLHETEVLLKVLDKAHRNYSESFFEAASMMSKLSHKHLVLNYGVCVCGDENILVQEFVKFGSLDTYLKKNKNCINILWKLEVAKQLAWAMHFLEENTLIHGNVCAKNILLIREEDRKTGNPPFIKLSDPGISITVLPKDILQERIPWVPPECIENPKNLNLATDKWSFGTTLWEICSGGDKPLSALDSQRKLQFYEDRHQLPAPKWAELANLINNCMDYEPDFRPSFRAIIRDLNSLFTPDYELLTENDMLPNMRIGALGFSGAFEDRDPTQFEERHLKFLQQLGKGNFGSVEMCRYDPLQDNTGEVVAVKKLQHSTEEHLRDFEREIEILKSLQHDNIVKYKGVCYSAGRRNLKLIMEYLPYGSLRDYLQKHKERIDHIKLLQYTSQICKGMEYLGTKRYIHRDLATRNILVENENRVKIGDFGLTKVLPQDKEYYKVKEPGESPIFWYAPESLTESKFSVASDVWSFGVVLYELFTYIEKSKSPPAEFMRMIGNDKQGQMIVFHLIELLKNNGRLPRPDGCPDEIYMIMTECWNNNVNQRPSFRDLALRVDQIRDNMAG
Endpoint: IC50 (µM)
Answer in µM, number only, no unit symbol.

*Q* Please give the measured IC50 for this compound: COC(=O)Nc1cc(-c2ccc(OC[C@@](C)(N)CC(C)C)c(Cl)n2)ccn1
*A* 1.6

---

Assay: Plasma concentration in STZ-induced diabetic peripheral neuropathic mechanical allodynia in overnight fasted Sprague-Dawley rat at 1 mg/kg, po measured at 5.5 hrs post dose
Assay type: ADME, organism-based
Endpoint: concentration at 5.5 h (nM)
Answer in nM, number only, no unit symbol.

*Q* Please give the measured concentration at 5.5 h for this compound: CC(=O)Nc1cc(-c2ccc(OC[C@@H](N)CC(C)C)c(F)c2)ccn1
*A* 190

---

Experiment: Drug concentration in CCI induced thermal hyperalgesia in Sprague-Dawley rat spinal cord at 3 mg/kg, po measured after 5.5 hrs
Assay type: ADME, organism-based
Settings: read-out: Ct
Endpoint: concentration at 5.5 h (nM)
Answer in nM, number only, no unit symbol.

*Q* Please give the measured concentration at 5.5 h for this compound: CC(C)C[C@](C)(N)COc1cnc(-c2ccnc(C(F)F)c2)cc1C(F)F
*A* 378

---

Test: Permeability across apical to basolateral side in human Caco-2 cells
Format: ADME, cell-based
Details: read-out: permeability
Papp A→B listing for selected compounds.
Answer in ×10⁻⁶ cm/s, number only, no unit symbol.

Worked set:
CC(C)C[C@](C)(N)COc1cnc(-c2ccnc(C(F)F)c2)cc1C(F)F; 23.5
COC(=O)Nc1cc(-c2cnc(OC[C@@](C)(N)CC(C)C)c(C)c2)ccn1; 17.2

*Q* Please give the measured Papp A→B for this compound: COC(=O)Nc1cc(-c2ccc(OC[C@@](C)(N)CC(C)C)c(C)n2)ccn1
*A* 35.7

Ref: ChEMBL document CHEMBL5154787
